Test: amyloid nucleation score (Sup35N fusion, yeast selection) (log enrichment); library NNK3; higher = more nucleation; inactive = no reads after selection;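 further: zero at mode of non-aggregating sequences after 7 days selection at 30°C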
observed_property: amyloid nucleation score

Here's what some known entries look like.
>>> df
              substance         observed_property  assay_result
0  DVFRRFAGRTLQLSPWDTTL  amyloid nucleation score      inactive
1  ILNRLCRDLYVAFTSSAACR  amyloid nucleation score      inactive
2      ILHFRETLTRINNLEA  amyloid nucleation score      inactive
3         NRAVNFIVWWMYL  amyloid nucleation score      inactive

Input line: Fill blank: measured amyloid nucleation score of the substance WVWRSNSPGAEKWTLLTKTL is ____.
Output line: inactive

Input line: Would you kindly repeat that for EMCINSVMMDATMSKH ?
Output line: inactive

----------
Test: amyloid nucleation score (Sup35N fusion, yeast selection) (log enrichment); library NNK2; higher = more nucleation; inactive = no reads after selection
Label criterion met for high-side amyloid nucleation score (at or above -0.2) and criterion not met for low-side amyloid nucleation score (below it).

              substance        class_label
0  YIFLIMCRWYSATLIRKTSC  criterion not met

Attention now shifts to the item below.
Input line: Tell me whether amyloid nucleation score is at least -0.2 here: SYHFQDLW
Output line: criterion not met

----------
Assay: amyloid nucleation score (Sup35N fusion, yeast selection) (log enrichment); library NNK1; higher = more nucleation; inactive = no reads after selection
Recorded amyloid nucleation score determines the label; the label ranges are lower level (below -0.1), middle level (-0.1 to below 0.5), upper level (0.5 or more)

Record excerpt, results attached:
In [3]: df
Out[3]:
              substance  class_label
0   RWLETVGECCCESARVFCA  lower level
1  IVLTHYGSVLFHSYKGYFMW  lower level
2                LCLLPG  upper level

Input line: Dear colleague, I would appreciate it if you could identify the bin for NIHSEAPISPSMPGLREVTA and reply at your convenience.
Output line: middle level

Input line: What would you report for KSSNLVYVHTAHQRGYYCNQ ?
Output line: middle level

Input line: Then this substance: REEAVSVGHSRFGFWIVFGG
Output line: lower level

----------
Assay: amyloid nucleation score (Sup35N fusion, yeast selection) (log enrichment); library NNK2; higher = more nucleation; inactive = no reads after selection
observed_property: amyloid nucleation score
Lab note: jot down the number only; don't add units.

Recorded results for 3 substances are shown here.
In [3]: df
Out[3]:
              substance         observed_property  assay_result
0   YFYNGWRERARSEQCNHRT  amyloid nucleation score         0.441
1  PYYTIVMFAFYGLLTVRMGI  amyloid nucleation score         0.706
2  CKALQLLKGNLIDYCVPFLV  amyloid nucleation score         -1.05

Input line: Tell me the measured amyloid nucleation score of ITLSSS , please.
Output line: 0.853

Input line: Then this substance: YWCFAI
Output line: -0.349

Input line: // query: ARHMHSASYNYTGTRSYSFY
Output line: 5.56

----------
Experiment: amyloid nucleation score (Sup35N fusion, yeast selection) (log enrichment); library NNK1; higher = more nucleation; inactive = no reads after selection
Class membership depends on amyloid nucleation score alone; the intervals are low: < -0.2; moderate: ≥ -0.2 and < 0.4; high: ≥ 0.4

In [3]: df
Out[3]:
              substance  class_label
0  TLGLVDERHEDWIVLDYTLG         high

Input line: Please classify: HAWVVVGRRGGKGLEAWCPV
Output line: low

Input line: Now try LWTLVQTASSTWALLTGTTN .
Output line: moderate

Input line: Please do the same for RYCQVP as well.
Output line: moderate

Input line: // same read-out, input: KGNYFRVTVYSAGFIQLLMS
Output line: high

Input line: Another substance: ESIFFMTDTRSISLCST
Output line: moderate

----------
Assay: amyloid nucleation score (Sup35N fusion, yeast selection) (log enrichment); library NNK3; higher = more nucleation; inactive = no reads after selection
observed_property: amyloid nucleation score

Worked examples follow.
>>> print(df.to_string())
          sequence_text         observed_property  assay_result
0  VGLNVSWAYIMVAEYVVYMS  amyloid nucleation score        -0.698
1  VSWLCSMKDICPHCDEINYR  amyloid nucleation score           1.8
2     SKLGYRRVSKCIGTDFN  amyloid nucleation score      inactive
3  KYVYYSFLERSFDYMYFSRQ  amyloid nucleation score      inactive
4   LNVLAPFGWLARFIILAIP  amyloid nucleation score      inactive
5  RTSYLVLMKCYSALDYGVIA  amyloid nucleation score      inactive

Input line: I would be grateful if you could share the reported amyloid nucleation score for CSPGRIFHNGK .
Output line: inactive

Input line: Ok, now LRGARCYKSNRVIGVLCGSV
Output line: inactive

----------
Assay: amyloid nucleation score (Sup35N fusion, yeast selection) (log enrichment); library NNK3; higher = more nucleation; inactive = no reads after selection
observed_property: amyloid nucleation score

Below are worked cases with known answers.
              substance  assay_result
0    RTGSHEMLIICFCVTSVL      inactive
1                KLAKHH      inactive
2  YIVNLGKFKCQNLMRSCRLK          1.07
3  EVKGTCWVCVLVHVATSYVG          0.65
4   TMDTYSVPPHNFGMLCYGL      inactive
5  WKTRHRVEVWASFLLSYQTG        -0.551
6  SPFVCHEPLLRVVWSSTCSF      inactive
7  VCQPNRSQIQGIFLLRNYSV      inactive

Input line: Quick one: amyloid nucleation score for MAIFKLFVPFIFLIEFCYMV ?
Output line: inactive

Input line: Then what about the substance NQGWTCWCVSCCLGVKIVMI ?
Output line: inactive

Input line: Similarly, SGCVKLVVNTCLRYY ?
Output line: inactive

----------
Assay: amyloid nucleation score (Sup35N fusion, yeast selection) (log enrichment); library NNK1; higher = more nucleation; inactive = no reads after selection
observed_property: amyloid nucleation score
Respond using a number only.

              substance  assay_result
0  FAQWDNLSARSLKGDQRESA         0.302
1  RACGYYCKSLCPGCKTCLSR         0.005
2  KPLILVQNTKLPSRFCYPLT        -0.488
3  WLSHGIEVVVHKTSSVSYWR        -0.796
4  RWVTLCRWVNVSSDGELGVR         0.993
5  VYSSMIVLKDALIPSSKTDA         0.999

Proceeding to the next substance to report its amyloid nucleation score.
Input line: # input substance: GCMVFS ; wanted: its amyloid nucleation score
Output line: 0.352

----------
Attribute: amyloid nucleation score
Assay: amyloid nucleation score (Sup35N fusion, yeast selection) (log enrichment); library NNK1; higher = more nucleation; inactive = no reads after selection
Answer using only a numeral; do not append any unit.

Recorded results for 6 substances are shown here.
In [3]: df
Out[3]:
              substance  assay_result
0  TIDGSPIGMTTWPVPSFKFS         0.742
1       PFNMVWMRKYHLRSR        -0.378
2               VYSFDMM         0.256
3  LDMKSFEQLVKQLPCTWADD         0.222
4  PWSALTASGTKISSSKSRLG        -0.331
5  RPLFIMSLFRGWRRIKLHGS        -0.527

// below: amyloid nucleation score requested for another substance
Input line: I'd like to know its amyloid nucleation score. The substance in question is FQYLNLGISRHSARWTCTFL
Output line: -0.698

----------
Test: amyloid nucleation score (Sup35N fusion, yeast selection) (log enrichment); library NNK1; higher = more nucleation; inactive = no reads after selection
Label scheme for amyloid nucleation score: bucket A (below -0.07), bucket B (-0.07 to below 0.7), bucket C (0.7 or more)

Would you please look over these solved cases?
              substance  class_label
0     GDVLVSTNHIGFFKGPG     bucket C
1              SSFLASGL     bucket A
2               SIYRHDA     bucket B
3  ANRHRNRRSSSRDVFMFVIC     bucket C
4  ISALRFSTLRSCGAGPGVAS     bucket A
5  PQKHSFAWHRMVATLALSYR     bucket C
6              IGMVSVSC     bucket B
7  CGYLCNGKSGERSGIFGAHQ     bucket A

Input line: Record YFHIESGLYYTWFMLYGPGR — which class?
Output line: bucket B

Input line: Now consider RLCAINHPLCTFSQTMAWVH .
Output line: bucket B

Input line: Then this substance: DKVLQLMYMGLDSGVLPSKD
Output line: bucket A

Input line: Then TSRGKDLSTRVGGGAPPGFR ?
Output line: bucket A

Input line: What about RSHVVTGYARSGRGLLATDM ?
Output line: bucket B

Input line: Record: RSDYVNDGEYWAFRDRMMNM
Output line: bucket A

Input line: Item: DSRPCGYSRITFVCKGCAPC
Output line: bucket B
